- Test system: MALME-3M melanoma
- PROTOCOL TEXT: NCI tumour cell line growth inhibition, 48 h
I'd appreciate it if you could supply TGI values for the items below.

Dear colleague, I am looking for the recorded TGI of the following compound: CC(=O)c1ccc2c(c1)CC1(C2)Cc2cc3c(c(C(=O)O)c2C1)CCC3 (stereo not drawn)
> 100 µM

And for COC(=O)[C@@H]1Cc2c([nH]c3ccccc23)[C@H](c2ccccc2)N1 ?
> 100 µM

And for CCCc1cc(COC)c(C#N)c(=O)[nH]1 ?
> 100 µM

Hi there! I need TGI for each item below, if you can.
1. Cc1cccc(C)c1N1C(=O)C(=O)C(c2nc3ccccc3s2)/C(=N\N)C1=O (stereo not drawn)
2. Cc1ccc2c(=O)cc(-c3ccc4ccccc4c3)[nH]c2n1
3. COC(=O)/C=C1/OC(c2ccccc2)=C(C)C1=O
4. CC(=O)[CH-]C(=O)c1ccccc1.CC(=O)[CH-]C(=O)c1ccccc1.O=S(=O)([O-])c1cc([O-])c2c([O-])cc(S(=O)(=O)[O-])cc2c1.[Na+].[Zr+4]
5. CC(C)=CCC[C@@H](C)C1=C(O)C(Nc2ccccc2Cl)=C(C)C(=O)C1=O

> 100 µM
> 100 µM
26.7 µM
> 100 µM
29.3 µM

---

- System: HCC-2998 colon
- PROTOCOL TEXT: NCI tumour cell line growth inhibition, 48 h
TEST READOUT: TGI (µM)
Answers are plain numbers, in µM.

The following compounds have reported results that may help.
Dear colleague, I am looking for the recorded TGI of the following compound: Cc1cc(C)c(-c2noc(-c3ccc(Cl)cc3)c2C2=NCCCN2)c(C)c1
43.6

And for CC(=O)[C@H]1CCC2[C@@H]3CC=C4C[C@@H]([O-])CC[C@]4(C)C3CC[C@@]21C.CC(=O)[C@H]1CCC2[C@@H]3CC=C4C[C@@H]([O-])CC[C@]4(C)C3CC[C@@]21C.CC(=O)[CH-]C(=O)c1ccccc1.CC(=O)[CH-]C(=O)c1ccccc1.Cl.[Ti+4] (some centres not stated) ?
85.3

And for COc1ccc(/C=C2/SC(Nc3nc(-c4nc(NC5=NC(=O)/C(=C\c6ccc(OC)cc6)S5)sc4C)c(C)s3)=NC2=O)cc1 ?
3.66

And for CCc1nc2ccc(N=Nc3c(O)ccc4ccccc34)cc2[nH]1 ?
29.7

Here is another compound to look at.
Dear colleague, I am looking for the recorded TGI of the following compound: CCc1ccc(COC(=O)C2=C(C)NC(C)=C(C(=O)OCc3ccc(CC)cn3)C2C2=COCCO2)nc1
37.7

---

I'd appreciate it if you could supply TGI values for the items below.
- Tested on: ACHN renal
- PROTOCOL TEXT: NCI tumour cell line growth inhibition, 48 h

The following molecules have reported results that may help.
Dear colleague, I am looking for the recorded TGI of the following molecule: CC1(C)CCCC(C)(C2CCC3(C)C2C(O)CC2C4(C)CCC(O)C(C)(C)C4CCC23C)O1 (configuration not stated)
> 100 µM

And for CCOC(=O)CC(NC(=O)c1[nH]cnc1/N=N/N(C)C)C(=O)OCC (configuration not stated) ?
> 100 µM

And for Cc1cc(=O)oc2cc(OCC(O)COC(C)C)ccc12 (configuration not stated) ?
> 100 µM

And for O=C(CSCC(=O)N/N=C\c1cccc([N+](=O)[O-])c1)N/N=C\c1cccc([N+](=O)[O-])c1 ?
33.7 µM

And for O=C1CCc2ccc(O)c(c2)Oc2ccc(cc2)C(Sc2ccccc2)CCO1 (configuration not stated) ?
32.1 µM

And for Clc1ccccc1-c1nnc2c(Cc3ccccc3)nc3ccccc3n12 ?
> 100 µM

Hi there! I need TGI for each item below, if you can.
1. O=[S@]1c2ccc3ccccc3c2N[C@@H]2[C@H]1[C@H]1C=C[C@@H]2C1
2. COC1(OC)C2(Cl)C(Cl)=C(Cl)C1(Cl)C1C2C2CC1(C(=O)O)c1ccccc12 (configuration not stated)
3. CCOC(=O)/C=C(/C(=O)OCC)n1ccc(=O)n(Cc2cnnn2COCCOC(C)=O)c1=O

["> 100 µM", "> 100 µM", "22.1 µM"]

Hi there! I need TGI for each item below, if you can.
1. Cc1cc(Nc2nc(N[C@@H](C)c3ncc(F)cn3)ncc2Cl)n[nH]1
2. COc1ccccc1C(O)[C@@H]1C[C@@H]2[C@H]3CC[C@@](C)([C@@H]2O1)C3(C)C (some centres not stated)

["> 100 µM", "35.4 µM"]

Dear colleague, I am looking for the recorded TGI of the following molecule: Cc1cc2c(-c3nc4ccccn4c3N)c(O)c(O)cc2c(O)c1-c1c(C)cc2c(-c3nc4ccccn4c3N)c(O)c(O)cc2c1O
> 25 µM
